# TARGET OR SYSTEM: Beta-secretase 1 (Homo sapiens, UniProt P56817)
# Sequence (P56817 whole entry): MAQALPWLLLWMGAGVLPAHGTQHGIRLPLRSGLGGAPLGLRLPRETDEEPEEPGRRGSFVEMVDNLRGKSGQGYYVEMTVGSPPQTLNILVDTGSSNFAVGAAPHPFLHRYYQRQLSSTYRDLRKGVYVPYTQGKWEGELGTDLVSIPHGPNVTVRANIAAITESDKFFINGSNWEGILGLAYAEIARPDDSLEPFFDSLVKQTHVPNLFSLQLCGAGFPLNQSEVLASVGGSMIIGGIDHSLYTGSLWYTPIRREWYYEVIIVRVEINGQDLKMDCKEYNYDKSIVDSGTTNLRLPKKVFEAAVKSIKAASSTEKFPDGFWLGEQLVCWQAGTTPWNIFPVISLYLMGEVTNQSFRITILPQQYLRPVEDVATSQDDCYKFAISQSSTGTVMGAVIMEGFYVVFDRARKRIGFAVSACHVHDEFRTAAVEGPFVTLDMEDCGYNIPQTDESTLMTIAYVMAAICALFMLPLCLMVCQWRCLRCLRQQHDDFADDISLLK
# MEASUREMENT PROTOCOL: Inhibition of recombinant BACE1 (unknown origin) at 0.67 mM
Where inhibition equals or exceeds 30%, the correct label is Criterion met; where it does not, the label is Criterion not met.

# count of solved cases: 3
> print(dat)
                                item.smiles  assigned.category
1  O=C(/C=C(O)/C=C/c1ccccc1O)/C=C/c1ccc(O)c(O)c1      Criterion met
2  COc1cc(/C=C/C(O)=C/C(=O)/C=C/c2ccc(O)cc2)ccc1O      Criterion met
3  O=C(/C=C(O)/C=C/c1cccc(O)c1)/C=C/c1cccc(O)c1      Criterion met

Could you now look at the following compound, please?
IN: State whether the measured inhibition reaches 30%, counting equality as reaching it, for `O=C(/C=C(O)/C=C/c1ccc(O)c(O)c1)/C=C/c1ccc(O)c(O)c1`
OUT: Criterion not met

----------
Each entry below carries its reported inhibition.
# TARGET OR SYSTEM: Beta-secretase 1 (Homo sapiens)
# MEASUREMENT PROTOCOL: Inhibition of recombinant BACE1 (unknown origin) at 1.3 mM
The reply should contain only the number, in %.

> print(dat)
                                item.smiles                 target.or.system  value.kind  experimental.result
1  COc1cc(/C=C/C(O)=C/C(=O)/C=C/c2ccc(O[Si](C)(C)C(C)(C)C)c(OC)c2)ccc1O  Beta-secretase 1 (Homo sapiens)  inhibition                   22
2  COc1cc(CCC(=O)/C=C(\O)CCc2ccc(O)c(OC)c2)ccc1O  Beta-secretase 1 (Homo sapiens)  inhibition                    7

// assay Beta-secretase 1 (Homo sapiens), entry `COCCOCOc1ccc(/C=C/C(=O)/C=C(O)/C=C/c2ccc(OCOCCOC)c(OC)c2)cc1OC` , inhibition value = 19

----------
Each entry below carries its reported inhibition.
# TARGET OR SYSTEM: Beta-secretase 1 (Homo sapiens)
# MEASUREMENT PROTOCOL: Inhibition of recombinant BACE1 (unknown origin) at 0.67 mM
The reply should contain only the number, in %.

// known answers, use as guide
> print(dat)
                                   compound                 target.or.system  value.kind  experimental.result
1  N#Cc1cccc(/C=C/C(O)=C/C(=O)/C=C/c2ccc(O)c(O)c2)c1  Beta-secretase 1 (Homo sapiens)  inhibition                   21
2  COc1cc(/C=C/C(=O)/C=C(O)/C=C/c2ccc(Br)cc2)ccc1O  Beta-secretase 1 (Homo sapiens)  inhibition                    5
3    O=C(/C=C(O)/C=C/c1ccccc1)/C=C/c1ccccc1  Beta-secretase 1 (Homo sapiens)  inhibition                    1
4  COc1ccc(/C=C/C(=O)/C=C(O)/C=C/c2ccc(OC)c(OC)c2)cc1OC  Beta-secretase 1 (Homo sapiens)  inhibition                    0

// switching to the query compound
Lab note: measured inhibition of COc1ccc(CCC(=O)C(C(C)C)C(O)CCc2ccc(OC)c(OC)c2)cc1OC (stereo not given) was 1

----------
# TARGET OR SYSTEM: Beta-secretase 1 (Homo sapiens, UniProt P56817)
# MEASUREMENT PROTOCOL: Inhibition of recombinant BACE1 (unknown origin)
pIC50: −log10 of the molar value.
Where pIC50 equals or exceeds 3, the correct label is class 1; where it does not, the label is class 0.

> print(dat)
                                item.smiles  assigned.category
1  O=C(/C=C(O)/C=C/c1ccc(O)c(O)c1)/C=C/c1ccc(O)c(O)c1            class 0
2  O=C(/C=C(O)/C=C/c1ccccc1O)/C=C/c1ccc(O)c(O)c1            class 1
3  O=C(/C=C(O)/C=C/c1c[nH]c2ccccc12)/C=C/c1ccc(O)c(O)c1            class 1
4  COc1cc(/C=C/C(O)=C/C(=O)/C=C/c2ccc(O)cc2)ccc1O            class 0
5  COc1ccccc1/C=C/C(O)=C/C(=O)/C=C/c1ccc(O)c(O)c1            class 0

IN: State whether the measured pIC50 reaches 3, counting equality as reaching it, for `O=C(/C=C(O)/C=C/c1cccc([N+](=O)[O-])c1)/C=C/c1ccc(O)c(O)c1`
OUT: class 0
